The reported measurements were obtained from ChEMBL document CHEMBL3860043.

TARGET_OR_TEST_SYSTEM: Free fatty acid receptor 4 (Homo sapiens)
ASSAY: Agonist activity at C-terminal YFP-tagged human FFA4 expressed in HEK293 cells in presence of coelentrazine h by BRET based beta-arrestin-2 interaction assay
Type: cell-based
MEASUREMENT_PARAMETERS: read-out: pEC50 (converted)
MEASUREMENT_NAME: EC50 (µM)

Previously resolved entries follow.
CHEMICAL_STRUCTURE: O=S1(=O)c2ccccc2CN1c1cc(F)cc(Oc2ccccn2)c1
TEST_VALUE: 0.123

CHEMICAL_STRUCTURE: O=S1(=O)c2ccccc2CN1c1cc(F)cc(Oc2ccccc2)c1
TEST_VALUE: 0.234

CHEMICAL_STRUCTURE: Cc1cccc(Oc2cc(F)cc(N3Cc4ccccc4S3(=O)=O)c2)c1
TEST_VALUE: 2.63

CHEMICAL_STRUCTURE: N#Cc1ccc(Oc2cc(F)cc(N3Cc4ccccc4S3(=O)=O)c2)cc1
TEST_VALUE: 1.66

CHEMICAL_STRUCTURE: O=S(=O)(Nc1cc(F)cc(Oc2cccnc2)c1)c1ccc(F)cc1
TEST_VALUE: 16.6

[A] O=S1(=O)c2ccccc2CN1c1cc(F)cc(Oc2cccnc2)c1
[B] Cc1ccccc1Oc1cc(F)cc(N2Cc3ccccc3S2(=O)=O)c1
*Q* Of the two listed items, which has the higher EC50? First: A Second: B # respond with the chosen item's label
*A* B
(B: 2.69 µM, A: 0.437 µM)

[a] CCCCc1ccc(NS(=O)(=O)c2ccc(F)cc2)cc1
[b] O=S(=O)(Nc1ccc(Oc2ccccc2)cc1)c1ccc(F)cc1
[c] O=S1(=O)c2ccccc2CN1c1cccc(Oc2ccccc2)c1
*Q* Reorder: EC50, max to min. In your reply, arrange the labels in the requested order.
*A* a, b, c
(a: 5.37 µM, b: 3.55 µM, c: 0.245 µM)

[a] N#CCc1cccc(Oc2cc(F)cc(N3Cc4ccccc4S3(=O)=O)c2)c1
[b] O=S1(=O)c2ccccc2CN1c1cc(F)cc(Oc2ccncc2)c1
*Q* Decide: a or b , by lowest recorded EC50. # respond with the chosen item's label
*A* b

[a] O=C1c2ccccc2C(=O)N1c1cc(F)cc(Oc2cccnc2)c1
[b] N#Cc1ccccc1Oc1cc(F)cc(N2Cc3ccccc3S2(=O)=O)c1
[c] Cc1ccc(Oc2cc(F)cc(N3Cc4ccccc4S3(=O)=O)c2)cc1
[d] O=S1(=O)c2ccccc2CN1c1cccc(Oc2ccccn2)c1
[e] O=S1(=O)c2ccccc2CN1c1cc(Cl)cc(Oc2ccccn2)c1
*Q* Ascending sort, EC50. In your reply, arrange the labels in the requested order.
*A* e, c, d, a, b
(e: 0.138 µM, c: 0.437 µM, d: 1.55 µM, a: 5.01 µM, b: 16.2 µM)

[P] COc1ccc(S(=O)(=O)Nc2c(C)cc(C)cc2C)cc1
[Q] N#Cc1cccc(Oc2cc(F)cc(N3Cc4ccccc4S3(=O)=O)c2)c1
*Q* Of the two listed items, which has the higher EC50? First: P Second: Q # respond with the chosen item's label
*A* Q

###

System: Mus musculus
ASSAY: Toxicity in wild type DIO mouse assessed as reduction in body weight at 10 mg/kg, po dosed daily over 3 week period administered 15 mins before oral glucose challenge on first day measured after 21 days
Format: organism-based
Set-up: scale not given: the % may be the effect or the level left
MEASUREMENT_PARAMETERS: in vivo, 504 h
MEASUREMENT_NAME: Activity

*Q* Read off the recorded Activity for O=S1(=O)c2ccccc2CN1c1cc(F)cc(Oc2ccccn2)c1
*A* 7 to 9%

###

TARGET_OR_TEST_SYSTEM: Free fatty acid receptor 4 (Homo sapiens, UniProt Q5NUL3)
Sequence (Q5NUL3 whole entry): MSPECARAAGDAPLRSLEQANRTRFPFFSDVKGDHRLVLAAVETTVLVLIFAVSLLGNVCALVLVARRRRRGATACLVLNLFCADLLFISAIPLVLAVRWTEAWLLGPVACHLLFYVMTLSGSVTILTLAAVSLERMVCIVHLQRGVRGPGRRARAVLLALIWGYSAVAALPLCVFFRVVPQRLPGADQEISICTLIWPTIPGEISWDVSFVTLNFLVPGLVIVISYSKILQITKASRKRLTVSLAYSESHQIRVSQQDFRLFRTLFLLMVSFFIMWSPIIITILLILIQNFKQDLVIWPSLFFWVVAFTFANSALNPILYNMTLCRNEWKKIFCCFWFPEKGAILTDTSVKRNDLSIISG
ASSAY: Agonist activity at human FFA4 expressed in human Flp-In T-REx293 cells by Fura2-AM dye based calcium mobilization assay
Assay type: functional, cell-based
MEASUREMENT_NAME: EC50 (nM)

CHEMICAL_STRUCTURE: O=S1(=O)c2ccccc2CN1c1cc(F)cc(Oc2cccnc2)c1
EC50, nM: 302

[A] O=S1(=O)c2ccccc2CN1c1cc(F)cc(Oc2ccccn2)c1
[B] O=S1(=O)c2ccccc2CN1c1cccc(Oc2ccccn2)c1
[C] N#Cc1ccc(Oc2cc(F)cc(N3Cc4ccccc4S3(=O)=O)c2)cc1
[D] O=S1(=O)c2ccccc2CN1c1cc(F)cc(Oc2ccccc2)c1
[E] O=S1(=O)c2ccccc2CN1c1cc(Cl)cc(Oc2ccccn2)c1
*Q* Ascending sort, EC50. In your reply, arrange the labels in the requested order.
*A* E, A, D, B, C

[I] Cc1ccc(Oc2cc(F)cc(N3Cc4ccccc4S3(=O)=O)c2)cc1
[II] O=S1(=O)c2ccccc2CN1c1cccc(Oc2ccccc2)c1
[III] Cc1cccc(Oc2cc(F)cc(N3Cc4ccccc4S3(=O)=O)c2)c1
*Q* Ascending sort, EC50. In your reply, arrange the labels in the requested order.
*A* II, I, III
(II: 209 nM, I: 1100 nM, III: 4470 nM)

###

TARGET_OR_TEST_SYSTEM: Free fatty acid receptor 4 (Homo sapiens)
ASSAY: Agonist activity at C-terminal YFP-tagged human FFA4 expressed in HEK293 cells in presence of coelentrazine h by BRET based beta-arrestin-2 interaction assay relative to 100 uM […]
Type: cell-based
MEASUREMENT_NAME: Emax (%)

Previously resolved entries follow.
CHEMICAL_STRUCTURE: O=C1c2ccccc2C(=O)N1c1cc(F)cc(Oc2cccnc2)c1
TEST_VALUE: 45
//
CHEMICAL_STRUCTURE: N#Cc1ccccc1Oc1cc(F)cc(N2Cc3ccccc3S2(=O)=O)c1
TEST_VALUE: 76
//
CHEMICAL_STRUCTURE: N#Cc1ccc(Oc2cc(F)cc(N3Cc4ccccc4S3(=O)=O)c2)cc1
TEST_VALUE: 87

[I] O=S1(=O)c2ccccc2CN1c1cc(F)cc(Oc2cccnc2)c1
[II] Cc1ccccc1Oc1cc(F)cc(N2Cc3ccccc3S2(=O)=O)c1
*Q* Decide: I or II , by lowest recorded Emax. # respond with the chosen item's label
*A* II

###

TARGET_OR_TEST_SYSTEM: Free fatty acid receptor 1 (Homo sapiens, UniProt O14842)
Sequence (O14842 whole entry): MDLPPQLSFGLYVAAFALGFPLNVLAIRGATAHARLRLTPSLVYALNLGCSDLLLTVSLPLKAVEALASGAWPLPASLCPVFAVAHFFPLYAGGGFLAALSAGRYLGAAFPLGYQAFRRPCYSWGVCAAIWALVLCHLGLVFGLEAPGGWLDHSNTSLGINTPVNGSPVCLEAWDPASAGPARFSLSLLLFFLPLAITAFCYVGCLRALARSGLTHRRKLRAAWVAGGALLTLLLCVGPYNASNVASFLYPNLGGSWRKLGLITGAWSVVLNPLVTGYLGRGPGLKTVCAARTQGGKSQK
ASSAY: Antagonist activity against human FFA1 expressed in human Flp-In T-REx293 cells assessed as as reduction in 300 nM TUG424-induced response by Fura2-AM dye based calcium mobilization assay relative to untreated control
Format: functional, cell-based
MEASUREMENT_NAME: Imax (%)

[P] O=S1(=O)c2ccccc2CN1c1cc(F)cc(OCc2ccccc2)c1
[Q] O=S(=O)(Nc1ccc(Oc2ccccc2)cc1)c1ccc(F)cc1
*Q* Decide: P or Q , by lowest recorded Imax. # respond with the chosen item's label
*A* P

###

TARGET_OR_TEST_SYSTEM: Free fatty acid receptor 1 (Homo sapiens, UniProt O14842)
ASSAY: Antagonist activity against human FFA1 expressed in human Flp-In T-REx293 cells assessed as as reduction in TUG424-induced response by Fura2-AM dye based calcium mobilization assay
Assay type: functional, cell-based
pIC50: −log10 of the molar value.
pIC50 values for the compounds below.

CHEMICAL_STRUCTURE: O=S1(=O)c2ccccc2CN1c1cc(F)cc(Oc2cccnc2)c1
pIC50: < 4.00

CHEMICAL_STRUCTURE: O=S1(=O)c2ccccc2CN1c1cccc(Oc2ccccn2)c1
pIC50: < 4.00

Okay, now this compound:
*Q* Read off the recorded pIC50 for N#Cc1ccccc1Oc1cc(F)cc(N2Cc3ccccc3S2(=O)=O)c1
*A* < 4.00

###

TARGET_OR_TEST_SYSTEM: Free fatty acid receptor 4 (Homo sapiens)
Sequence (whole entry): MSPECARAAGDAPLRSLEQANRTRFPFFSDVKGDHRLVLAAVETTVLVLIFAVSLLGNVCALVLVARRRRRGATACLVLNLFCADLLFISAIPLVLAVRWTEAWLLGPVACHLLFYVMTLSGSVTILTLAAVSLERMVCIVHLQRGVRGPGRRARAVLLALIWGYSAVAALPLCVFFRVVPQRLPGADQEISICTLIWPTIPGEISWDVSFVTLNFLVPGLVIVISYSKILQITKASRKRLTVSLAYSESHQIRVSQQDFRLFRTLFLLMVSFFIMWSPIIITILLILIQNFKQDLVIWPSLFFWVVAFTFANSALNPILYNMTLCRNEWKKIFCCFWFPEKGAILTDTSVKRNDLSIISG
ASSAY: Agonist activity at C-terminal YFP-tagged human FFA4 expressed in HEK293 cells in presence of coelentrazine h by BRET based beta-arrestin-2 interaction assay relative to 100 uM […]
Assay type: cell-based
MEASUREMENT_NAME: Emax (%)

CHEMICAL_STRUCTURE: Cc1cccc(Oc2cc(F)cc(N3Cc4ccccc4S3(=O)=O)c2)c1
MEASUREMENT_NAME: Emax
TEST_VALUE: 87
--
CHEMICAL_STRUCTURE: CCCCc1ccc(NS(=O)(=O)c2ccc(F)cc2)cc1
MEASUREMENT_NAME: Emax
TEST_VALUE: 76
--
CHEMICAL_STRUCTURE: N#Cc1cccc(Oc2cc(F)cc(N3Cc4ccccc4S3(=O)=O)c2)c1
MEASUREMENT_NAME: Emax
TEST_VALUE: 83
--
CHEMICAL_STRUCTURE: O=S1(=O)c2ccccc2CN1c1cc(Cl)cc(Oc2ccccn2)c1
MEASUREMENT_NAME: Emax
TEST_VALUE: 113
--
CHEMICAL_STRUCTURE: O=S1(=O)c2ccccc2CN1c1cc(F)cc(Oc2ccncc2)c1
MEASUREMENT_NAME: Emax
TEST_VALUE: 97
--
CHEMICAL_STRUCTURE: O=S1(=O)c2ccccc2CN1c1cc(F)cc(Oc2ccccc2)c1
MEASUREMENT_NAME: Emax
TEST_VALUE: 101
